From: ChEMBL document CHEMBL1201862

Reported GI50 values for a set of molecules
- Tested on: PC-3
- experiment description: NCI tumour cell line growth inhibition, 48 h
The source made the active and inactive calls. No stated cut-off is given here; in the data, active = GI50 up to about 1.1 µM and inactive = higher.

# molecule, GI50
data = [
    ("C#CCOCC12C=CC(O1)C1C(=O)N(C)C(=O)C12 (centres undefined)", "> 100 µM (inactive)"),
    ("CCOC(=O)c1c(N2CCCC2)ncn(-c2ccccc2)c1=S", "> 100 µM (inactive)"),
    ("O=C(CNc1cccc(Cl)c1)Nn1c(-c2ccccc2)nc2ccccc2c1=O", "10.2 µM (inactive)"),
    ("CC1CN=C(N(C)C(=O)Nc2ccc(Cl)cc2)S1 (centres undefined)", "15.7 µM (inactive)"),
    ("Cc1ccc(C[N+](C)(C)N)cc1C", "> 10 µM (inactive)"),
    ("Cn1ncc(NCCn2cnc3c2c(=O)n(C)c(=O)n3C)c(Cl)c1=O", "> 100 µM (inactive)"),
    ("CC(C)(C)OC(=O)N(CCCCNCc1ccc2ccccc2c1)CCCNCc1ccc2ccccc2c1", "1.94 µM (inactive)"),
    ("CCC1CC(=O)N(SCC(N)C(=O)O)C1=O (centres undefined)", "> 100 µM (inactive)"),
    ("COc1ccc2c(O)c1-c1c(OC)ccc(c1O)SSc1ccc(OC)c(c1O)-c1c(OC)ccc(c1O)SS2", "5.42 µM (inactive)"),
]

---

- Tested on: SF-295
- experiment description: NCI tumour cell line growth inhibition, 48 h
Activity calls are given as the source filed them. No stated cut-off is given here; in the data, active = GI50 up to about 1.1 µM and inactive = higher.
Possible outcomes: active, inactive

# compound, answer label
records = [
    ("O[C@]12C=C(c3nccc4c3[nH]c3ccccc34)[C@@H]3CCN(CCCC/C=C\\CC1)C[C@@]31CC3/C=C\\CCCCN3[C@H]12 (some centres not stated)", "active"),
    ("CC1=C(C(=O)Nc2ccccc2)C2(CCCCC2)C(C#N)=C(SCC(=O)Nc2ccc(Br)cc2)N1", "inactive"),
    ("CC(C)(Br)C(=O)/C=C/c1ccccc1", "inactive"),
    ("O=P1(Cc2ccccc2)N(Cc2ccccc2)[C@@H]2CCCC[C@H]2N1Cc1ccccc1", "inactive"),
    ("C/C(=N\\c1cc(Cl)cc(Cl)c1)c1ccncc1", "inactive"),
    ("CC(C)C(O)(C(=O)OCN1C(=O)C2C3C=CC(C2C1=O)C1C2C(=O)N(COC(=O)C(O)(C(C)C)C(C)O)C(=O)C2C31)C(C)O (configuration not stated)", "inactive"),
    ("C#CCOCC12C=CC(O1)C1C(=O)N(C)C(=O)C12 (configuration not stated)", "inactive"),
    ("O=P(O)(O)CN1CCNCCN(CP(=O)(O)O)CCN(CP(=O)(O)O)CCNCC1", "inactive"),
    ("CC(=O)N(CN1C(=O)CCC1C(=O)O)c1ccccc1Cl (configuration not stated)", "inactive"),
    ("OC(c1cc(C(O)(C(F)(F)F)C(F)(F)F)ncn1)(C(F)(F)F)C(F)(F)F", "inactive"),
    ("N#C/C(=C\\c1ccccc1)C(=O)Nc1nnc(-c2ccccc2)o1", "inactive"),
    ("CC1CC2=C(C1)C(C1(C)C(=O)CC3C(C1=O)C3(C)C)C(C)C2=O (configuration not stated)", "inactive"),
    ("CC(C)N(C(=O)C12C3C4C5(C#N)C3C1(C#N)C5C42C#N)C(C)C (configuration not stated)", "inactive"),
    ("CCCCC#C[I+]c1ccccc1", "inactive"),
    ("CC(=O)OCCOCNC(=S)N/N=C/c1cc([N+](=O)[O-])ccc1O", "inactive"),
    ("N/C(=N\\Nc1cccc(Cl)c1)c1cccnc1", "inactive"),
    ("O=C1CSC(Cc2nc3ccccc3[nH]2)=N1", "inactive"),
    ("CCCCCCCCCOC(=S)NCCCCC", "inactive"),
    ("Ic1cc2c(cc1C1SCCCS1)OCO2", "inactive"),
    ("COC(=O)Cn1c(=O)oc2nc(-c3ccccc3)cc(C(F)(F)F)c21", "inactive"),
    ("Cl[Si]1(Cl)Oc2ccccc2O[Si](Cl)(Cl)Oc2ccccc2O1", "inactive"),
    ("COc1ccc(OC)c2c(C(C)=O)cccc12", "inactive"),
]
